- Test Target: Cbl (aa49-434) (Homo sapiens, UniProt P22681)
- Construct: Cbl (aa49-434, in-house); made in house
- Sequence (P22681 49-434): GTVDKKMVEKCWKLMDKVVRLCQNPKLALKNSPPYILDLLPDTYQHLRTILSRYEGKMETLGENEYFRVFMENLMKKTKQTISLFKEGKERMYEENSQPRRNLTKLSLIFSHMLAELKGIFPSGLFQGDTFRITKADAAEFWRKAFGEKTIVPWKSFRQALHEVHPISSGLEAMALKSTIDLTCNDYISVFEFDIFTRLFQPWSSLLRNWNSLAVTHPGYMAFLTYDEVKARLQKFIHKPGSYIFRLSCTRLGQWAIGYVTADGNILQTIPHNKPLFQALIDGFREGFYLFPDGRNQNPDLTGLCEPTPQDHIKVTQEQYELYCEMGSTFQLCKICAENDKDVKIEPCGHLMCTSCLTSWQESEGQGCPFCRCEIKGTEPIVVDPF
- Assay Overview: Co-expressed Cbl with BirA biochemical assay (CBL/E2-Ub binding, HTRF)
- Stated Conditions: 0.6 nM Cbl co-expressed with BirA, read-out: co-express CBL/E2-Ub-binding assay IC50
The following compounds are shown together with reported pIC50 values.
# reply with the number alone; pIC50 is -log10 of concentration in mol/L

Consider the reported pIC50 for these compounds:
[
  {
    "Substance Smiles": "Cc1cnc2c(C(=O)Nc3cccc([C@]4(c5nncn5C)C[C@@H](CC#N)C4)c3)cc(CN3CC[C@H](F)[C@H](C)C3)cn12",
    "pIC50": 8.15
  },
  {
    "Substance Smiles": "Cn1cnnc1[C@]1(c2cccc(NC(=O)c3cc(CNCC4CCCC4)cn4c(F)cnc34)c2)C[C@H](C)C1",
    "pIC50": 8.37
  },
  {
    "Substance Smiles": "Cn1cnnc1[C@]1(c2cccc(NC(=O)c3cc(CNC4(C)CC4)c4c(n3)C(C)(C)CC4)c2)C[C@H](CC#N)C1",
    "pIC50": 7.98
  }
]

Summary: C[C@H](NCc1cc(C(=O)Nc2cncc([C@]3(c4nncn4C)C[C@@H](C)C3)c2)c2ncc(F)n2c1)C1CC1 , Cbl (aa49-434) (Homo sapiens, UniProt P22681), pIC50 = 9.22

----------
- Test Target: Cbl-b (aa36-427) (Homo sapiens, UniProt Q13191)
- Construct: Cbl-b (aa36-427, in-house); made in house
- Sequence (Q13191 36-427): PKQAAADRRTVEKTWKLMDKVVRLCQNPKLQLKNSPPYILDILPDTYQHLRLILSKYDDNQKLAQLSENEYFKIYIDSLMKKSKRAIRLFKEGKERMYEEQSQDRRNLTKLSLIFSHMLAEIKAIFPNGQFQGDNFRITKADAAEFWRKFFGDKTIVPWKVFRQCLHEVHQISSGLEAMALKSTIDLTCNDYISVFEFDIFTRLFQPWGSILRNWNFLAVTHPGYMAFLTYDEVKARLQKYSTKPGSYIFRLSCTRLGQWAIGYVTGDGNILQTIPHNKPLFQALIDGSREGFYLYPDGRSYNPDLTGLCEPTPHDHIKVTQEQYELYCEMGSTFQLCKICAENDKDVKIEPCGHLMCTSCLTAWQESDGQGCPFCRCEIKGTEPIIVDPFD
- Assay Overview: Co-expressed Cbl-b with BirA biochemical assay (CBLB/E2-Ub binding, HTRF)
- Stated Conditions: 0.6 nM Cbl-b co-expressed with BirA, HTRF; read-out: co-express CBLB/E2-Ub-binding assay IC50
Measured Quantity: pIC50
# reply with the number alone; pIC50 is -log10 of concentration in mol/L

Consider the reported pIC50 for these compounds:
[
  {
    "Compound": "C[C@H](NCc1cc(C(=O)Nc2cccc([C@]3(c4nncn4C)C[C@@H](CC#N)C3)c2)nc2c1OCC2(C)C)C1CCC1",
    "pIC50": 9.10
  },
  {
    "Compound": "Cn1cnnc1[C@]1(c2cccc(NC(=O)c3cc(CNC4(C)CCC4)c4c(n3)C3(CC3)CN4)c2)C[C@H](CC#N)C1",
    "pIC50": 8.41
  },
  {
    "Compound": "Cn1cnnc1[C@]1(c2cccc(NC(=O)c3cc(CNC4(C)CC4)cn4ccnc34)c2)C[C@H](CC#N)C1",
    "pIC50": 8.82
  },
  {
    "Compound": "Cn1cnnc1[C@]1(c2cncc(NC(=O)c3cc(CNCC4CCC4)c4[nH]cc(Cl)c4n3)c2)C[C@H](C)C1",
    "pIC50": 8.51
  },
  {
    "Compound": "Cc1cnc2c(C(=O)Nc3cccc([C@]4(c5nncn5C)C[C@@H](CC#N)C4)c3)cc(CN3CC[C@H](F)[C@H](C)C3)cn12",
    "pIC50": 8.85
  }
]

Looking up Cn1cnnc1C[C@]1(c2cccc(NC(=O)c3cc(CNCC4CCCC(F)(F)C4)c4c(n3)C(C)(C)CC4)c2)C[C@H](C#N)C1 (stereo partly drawn) , I found its pIC50 recorded as 8.74

----------
- Test Target: Cbl (aa49-434) (Homo sapiens)
- Construct: Cbl (aa49-434, in-house); made in house
- Assay Overview: Co-expressed Cbl with BirA biochemical assay (CBL/E2-Ub binding, HTRF)
- Stated Conditions: 0.6 nM Cbl co-expressed with BirA, read-out: co-express CBL/E2-Ub-binding assay IC50
The following compounds are shown together with reported IC50 values.
// units = nM; emit number, no label

Consider the reported IC50 for these compounds:
[
  {
    "Substance Smiles": "Cn1cnnc1[C@]1(c2cccc(NC(=O)c3cc(CNCC4CCCC4)cn4ccnc34)c2)C[C@H](C)C1",
    "IC50 [nM]": 7.6
  },
  {
    "Substance Smiles": "Cn1cnnc1[C@]1(c2cccc(NC(=O)c3cc(CNCC4(C)CCCC4)c4c(n3)C(C)(C)CN4)c2)C[C@H](CC#N)C1",
    "IC50 [nM]": 6.1
  }
]

Now let's try a different one.
Looking up C[C@H](NCc1cc(C(=O)Nc2cccc([C@]3(c4nncn4C)C[C@@H](CC#N)C3)c2)c2ncc(Cl)n2c1)C1CCCC1 , I found its IC50 recorded as 7.8

----------
- Test Target: Cbl-b (aa36-427) (Homo sapiens, UniProt Q13191)
- Construct: Cbl-b (aa36-427, in-house); made in house
- Assay Overview: Co-expressed Cbl-b with BirA biochemical assay (CBLB/E2-Ub binding, HTRF)
- Stated Conditions: 0.6 nM Cbl-b co-expressed with BirA, HTRF; read-out: co-express CBLB/E2-Ub-binding assay IC50
pIC50: −log10 of the molar value.
Please note: Satisfied applies when pIC50 is 9 or greater, and Not satisfied applies otherwise.

Here's what some known entries look like.
[
  {
    "Substance Smiles": "Cn1cnnc1[C@]1(c2cncc(NC(=O)c3cc(CNCC4CCC4)c4c(n3)C(C)(C)CC4)c2)C[C@H](C)C1",
    "Class": "Not satisfied"
  },
  {
    "Substance Smiles": "Cn1cnnc1[C@]1(c2cccc(NC(=O)c3cc(CNC4(C)CC4)cn4c(Cl)cnc34)c2)C[C@H](C)C1",
    "Class": "Satisfied"
  },
  {
    "Substance Smiles": "C[C@H]1CCCN(Cc2cc(C(=O)Nc3cccc([C@]4(c5nncn5C)C[C@@H](CC#N)C4)c3)c3nccn3c2)C1",
    "Class": "Not satisfied"
  }
]

Here's the next entry for you.
## Task Does the reported pIC50 for Cn1cnnc1[C@]1(c2cccc(NC(=O)c3cc(CNCC4CCC4)c4c(n3)C(C)(C)CN4)c2)C[C@H](C)C1 fall at or above the 9 mark?
## Result Not satisfied

----------
The following molecules are shown together with reported IC50 values.
- Test Target: Cbl-b (aa36-427) (Homo sapiens, UniProt Q13191)
- Construct: Cbl-b (aa36-427, in-house); made in house
- Assay Overview: Biotin-labelled Cbl-b biochemical assay (CBLB/E2-Ub binding, HTRF)
- Stated Conditions: 5.0 nM biotin labelled Cbl-b
- Source text: The assay in the absence of a Cbl-b/Cbl inhibitor, where phosphorylation of Cbl-b/Cbl by the Src kinase allows UbcH5B-Ub to bind to Cbl-b/Cbl and brings the Bodipy-Fluorescein tagged ubiquitin in proximity to the streptavidin-terbium bound to the N-terminal biotinylated Avi-tagged Cbl-b/Cbl. […] The lack of a FRET signal indicates Cbl-b/Cbl is inhibited by the Cbl-b/Cbl inhibitor. […]
// units = nM; emit number, no label

Consider the reported IC50 for these molecules:
[
  {
    "Molecule": "CC1CC(c2cccc(NC(=O)c3cc(CN4CCC[C@H](C)C4)c4c(n3)CCC4)c2)(c2nncn2C)C1 (stereo partly drawn)",
    "Test Target": "Cbl-b (aa36-427) (Homo sapiens, UniProt Q13191)",
    "IC50 (nM)": 11
  },
  {
    "Molecule": "C[C@H]1CCCN(Cc2cc(C(=O)Nc3cccc([C@]4(c5nncn5C)C[C@@H](C)C4)c3)nc3c2CCC3(F)F)C1",
    "Test Target": "Cbl-b (aa36-427) (Homo sapiens, UniProt Q13191)",
    "IC50 (nM)": 8.3
  }
]

Now let's try a different one.
Looking up CC1CCc2c(CN3CCC[C@H](C)C3)cc(C(=O)Nc3cccc([C@]4(c5nncn5C)C[C@@H](C)C4)c3)nc21 (stereo partly drawn) , I found its IC50 recorded as 11.9

----------
- Test Target: Cbl-b (aa36-427) (Homo sapiens, UniProt Q13191)
- Construct: Cbl-b (aa36-427, in-house); made in house
- Assay Overview: Co-expressed Cbl-b with BirA biochemical assay (CBLB/E2-Ub binding, HTRF)
- Stated Conditions: 0.6 nM Cbl-b co-expressed with BirA, HTRF; read-out: co-express CBLB/E2-Ub-binding assay IC50
Measured Quantity: log10 of IC50 (log10 of the value in nM)
Scale: log10; quantity: IC50; unit before log: nM

Consider the reported log10 of IC50 for these compounds:
[
  {
    "Substance Smiles": "C[C@H]1CCCN(Cc2cc(C(=O)Nc3cccc([C@]4(c5nncn5C)C[C@@H](CC#N)C4)c3)nc3sccc23)C1",
    "Measured Quantity": "log10 of IC50",
    "Readout Number": 0.20
  },
  {
    "Substance Smiles": "C[C@H]1CCCN(Cc2cc(C(=O)Nc3cccc([C@]4(c5nncn5C)C[C@@H](CC#N)C4)c3)n3ncc(F)c3c2)C1",
    "Measured Quantity": "log10 of IC50",
    "Readout Number": 0.48
  },
  {
    "Substance Smiles": "C[C@@H]1CN(Cc2cc(C(=O)Nc3cncc([C@]4(c5nncn5C)C[C@@H](C)C4)c3)nc3c2NCC3(C)C)CC[C@@H]1F",
    "Measured Quantity": "log10 of IC50",
    "Readout Number": 0.23
  },
  {
    "Substance Smiles": "C[C@H](NCc1cc(C(=O)Nc2cccc([C@]3(c4nncn4C)C[C@@H](C)C3)c2)nc2c1CCC2(F)F)C1CCC1",
    "Measured Quantity": "log10 of IC50",
    "Readout Number": 0.40
  },
  {
    "Substance Smiles": "Cn1cnnc1CC1(c2cccc(NC(=O)c3cc(CNC4CCCCC4)cn4ccnc34)c2)COC1",
    "Measured Quantity": "log10 of IC50",
    "Readout Number": 1.11
  },
  {
    "Substance Smiles": "C[C@H](NCc1cc(C(=O)Nc2cncc([C@]3(c4nncn4C)C[C@@H](C)C3)c2)c2ncc(Cl)n2c1)C1CC1",
    "Measured Quantity": "log10 of IC50",
    "Readout Number": -0.40
  },
  {
    "Substance Smiles": "C[C@H]1CCCN(Cc2cc(C(=O)Nc3cccc([C@]4(c5nncn5C)C[C@@H](CC#N)C4)c3)n3nccc3c2)C1",
    "Measured Quantity": "log10 of IC50",
    "Readout Number": 0.82
  }
]

Now let's try a different one.
Summary: C[C@H]1CCCN(Cc2cc(C(=O)Nc3cccc([C@]4(c5nncn5C)C[C@@H](CC#N)C4)c3)c3ncc(F)n3c2)C1 , Cbl-b (aa36-427) (Homo sapiens, UniProt Q13191), log10 of IC50 = 0.59
